Source: paper PMC8780828

Molecular target: CYP3A (Homo sapiens)
Sequence (P08684 2-503): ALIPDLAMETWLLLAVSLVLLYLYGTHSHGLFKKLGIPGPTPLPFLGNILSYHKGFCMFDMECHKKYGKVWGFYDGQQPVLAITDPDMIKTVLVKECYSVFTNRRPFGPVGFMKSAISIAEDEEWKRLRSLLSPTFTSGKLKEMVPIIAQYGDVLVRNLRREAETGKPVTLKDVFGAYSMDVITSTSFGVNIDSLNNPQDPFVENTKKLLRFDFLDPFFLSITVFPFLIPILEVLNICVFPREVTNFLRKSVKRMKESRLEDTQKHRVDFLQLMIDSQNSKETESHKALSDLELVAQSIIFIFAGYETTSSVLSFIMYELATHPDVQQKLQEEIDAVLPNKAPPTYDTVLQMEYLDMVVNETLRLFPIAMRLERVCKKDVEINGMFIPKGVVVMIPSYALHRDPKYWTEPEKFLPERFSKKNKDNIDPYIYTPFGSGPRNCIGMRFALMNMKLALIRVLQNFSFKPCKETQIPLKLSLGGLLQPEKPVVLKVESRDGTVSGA
Assay: in vitro
Settings: microsomes, pH 7.4, % of Control Enzyme Activity, 0.370 μM, n=1
measured_endpoint: activity at 0.37 µM (%)
Entry rule: numbers only, all in %.

*Q* // fetch activity at 0.37 µM given entry `O=C(O)c1cc(-c2ccc(/C=C3\SC(=S)N(CCc4ccccc4)C3=O)o2)ccc1Cl`
*A* 95.1

---

Experiment: in vitro
Conditions: both, human, microsomes, pH 7.4
Below: a set of entries, each annotated with reported microsomal CLint.
Please report the result as a number followed by the unit.

compound	microsomal CLint
C[C@]12CC[C@H]3[C@@H](CCC4=CC(=O)CC[C@@]43C)[C@@H]1CC[C@@H]2O [Testosterone, reference compound]	122 µL/min/mg

Now take the following compound into account.
*Q* // fetch microsomal CLint given entry `O=C(O)c1cc(-c2ccc(/C=C3\SC(=S)N(CCc4ccccc4)C3=O)o2)ccc1Cl`
*A* 12.4 µL/min/mg

---

Target: CYP3A (Homo sapiens)
Assay: in vitro
Conditions: microsomes, pH 7.4, % of Control Enzyme Activity, 3.33 μM, n=1
measured_endpoint: activity at 3.33 µM (%)
Entry rule: numbers only, all in %.

*Q* // fetch activity at 3.33 µM given entry O=C(O)c1cc(-c2ccc(/C=C3\SC(=S)N(CCc4ccccc4)C3=O)o2)ccc1Cl [NBCoV1]
*A* 88.2

---

Molecular target: CYP1A2 (Homo sapiens, UniProt P05177)
Sequence (P05177 whole entry): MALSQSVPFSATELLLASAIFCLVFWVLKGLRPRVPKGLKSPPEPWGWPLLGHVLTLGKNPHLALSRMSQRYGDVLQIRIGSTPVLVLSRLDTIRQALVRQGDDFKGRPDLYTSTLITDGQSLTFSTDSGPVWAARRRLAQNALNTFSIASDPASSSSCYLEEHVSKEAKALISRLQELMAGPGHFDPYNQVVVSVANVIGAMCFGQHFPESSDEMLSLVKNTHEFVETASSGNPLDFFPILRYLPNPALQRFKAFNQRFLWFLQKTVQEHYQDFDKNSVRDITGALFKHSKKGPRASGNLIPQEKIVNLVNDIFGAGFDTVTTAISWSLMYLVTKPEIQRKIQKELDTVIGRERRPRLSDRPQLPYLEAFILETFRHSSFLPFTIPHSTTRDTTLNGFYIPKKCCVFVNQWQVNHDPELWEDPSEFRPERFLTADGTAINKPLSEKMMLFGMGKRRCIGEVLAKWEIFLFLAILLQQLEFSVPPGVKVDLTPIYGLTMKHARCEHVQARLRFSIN
Assay: in vitro
Details: microsomes, pH 7.4
measured_endpoint: activity at 1.11 µM (%)
Entry rule: numbers only, all in %.

*Q* // fetch activity at 1.11 µM given entry `O=C(O)c1cc(-c2ccc(/C=C3\SC(=S)N(CCc4ccccc4)C3=O)o2)ccc1Cl`
*A* 89.8

---

Molecular target: CYP2D6 (Homo sapiens)
Assay: in vitro
Details: microsomes, pH 7.4
measured_endpoint: activity at 0.123 µM (%)
Entry rule: numbers only, all in %.

*Q* Write down measured activity at 0.123 µM (CYP2D6 (Homo sapiens)) for this compound. `O=C(O)c1cc(-c2ccc(/C=C3\SC(=S)N(CCc4ccccc4)C3=O)o2)ccc1Cl`
*A* 98.6

---

Below: a set of entries, each annotated with reported pIC50.
System: pseudovirus NL4-3ΔEnv-NanoLuc/SARS-CoV-2
Assay: organism not typed
Assay type: cell-based
Settings: A549-ACE2; n=3
Convention used: pIC50 is expressed as -log10 of the molar concentration.

Some compounds with recorded pIC50:
smiles_repr	pIC50
O=C(O)c1cccc(-c2ccc(/C=C3\SC(=S)N(CCc4ccccc4)C3=O)o2)c1F	6.38
O=C(O)c1cc(-c2ccc(/C=C3\SC(=S)N(CCc4ccccc4)C3=O)o2)ccc1Br	6.60
O=C(O)c1cc(-c2ccc(/C=C3\SC(=S)N(CCc4ccccc4)C3=O)o2)ccc1F	6.92

Now take the following compound into account.
*Q* // fetch pIC50 given entry `CCc1ccc(-c2ccc(/C=C3\SC(=S)N(CCc4ccccc4)C3=O)o2)cc1C(=O)O`
*A* 6.21

---

Target: CYP2D6 (Homo sapiens, UniProt P10635)
Sequence (P10635 whole entry): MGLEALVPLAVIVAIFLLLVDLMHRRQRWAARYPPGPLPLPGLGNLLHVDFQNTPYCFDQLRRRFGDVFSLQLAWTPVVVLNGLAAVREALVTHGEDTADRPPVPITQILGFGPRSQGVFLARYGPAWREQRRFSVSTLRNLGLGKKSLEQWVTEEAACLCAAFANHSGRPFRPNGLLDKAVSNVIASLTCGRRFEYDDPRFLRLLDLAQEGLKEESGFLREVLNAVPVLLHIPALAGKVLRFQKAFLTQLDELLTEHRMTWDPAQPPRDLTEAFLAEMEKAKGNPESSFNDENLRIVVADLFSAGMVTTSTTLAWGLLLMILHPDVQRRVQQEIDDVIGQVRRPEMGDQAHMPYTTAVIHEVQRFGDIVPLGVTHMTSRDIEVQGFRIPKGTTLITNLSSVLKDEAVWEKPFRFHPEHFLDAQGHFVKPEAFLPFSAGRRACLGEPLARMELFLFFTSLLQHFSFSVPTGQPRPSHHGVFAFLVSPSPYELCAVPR
Test: in vitro
Conditions: microsomes, pH 7.4
measured_endpoint: activity at 1.11 µM (%)
Entry rule: numbers only, all in %.

*Q* // fetch activity at 1.11 µM given entry O=C(O)c1cc(-c2ccc(/C=C3\SC(=S)N(CCc4ccccc4)C3=O)o2)ccc1Cl [NBCoV1]
*A* 97
